# Tested on: erythrocyte suspensions of horse blood;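 further: Read-out is hemoglobin release into the supernatant, with a buffer-only blank subtracted as the 0% baseline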
# reported.conditions: 150 µM peptide; horse erythrocytes 5% vol/vol, TRIS buffer pH 7.2, 1 h at 37°C, absorbance 540 nm; relative to melittin 100 μM; ± confidence interval (α = 0.05)
Where a SMILES comes first, the peptide text is derived from it. [ ]: non-standard residue; d: D form. The star is where a group is joined. Pentanoyl(4-Me) = CC(C)CCC(=O)*; Octanoyl = CCCCCCCC(=O)*; X1 = O=C(CCCCCCCCCCCO)*; Hexanoyl = CCCCCC(=O)*
In this section, each of the molecules is paired with its reported Hemolysis (%) 150 µM.
Give me the value, and tack the unit on after it.

Record excerpt, results attached:
CCCCCC(=O)NCCCC[C@@H]1NC(=O)[C@H](Cc2ccccc2)NC(=O)[C@H](CCCCN)NC(=O)[C@H](CCCCN)NC(=O)[C@H](CC(C)C)NC(=O)[C@H](CCCCN)NC(=O)[C@H](CCCCN)NC(=O)[C@H](CCC(N)=O)NC(=O)[C@H](CC(C)C)NC(=O)[C@H](CCCCN)NC1=O [BPC584, c(KKLKKFK(CO-nC5H11)KLQ)] (cyclo(FK(Hexanoyl)KLQKKLKK))	72 ± 5%
CCCCCCCC(=O)NCCCC[C@@H]1NC(=O)[C@H](CCCCN)NC(=O)[C@H](CC(C)C)NC(=O)[C@H](CCCCN)NC(=O)[C@H](CCCCN)NC(=O)[C@H](CCC(N)=O)NC(=O)[C@H](CC(C)C)NC(=O)[C@H](CCCCN)NC(=O)[C@H](CCCCN)NC(=O)[C@H](Cc2ccccc2)NC1=O [BPC498, c(KKLKK(CO-C7H15)FKKLQ)] (cyclo(FKKLQKKLKK(Octanoyl)))	78 ± 4%
CC(C)CCC(=O)NCCCC[C@@H]1NC(=O)[C@H](CCCCN)NC(=O)[C@H](CC(C)C)NC(=O)[C@H](CCCCN)NC(=O)[C@H](CCCCN)NC(=O)[C@H](CCC(N)=O)NC(=O)[C@H](CC(C)C)NC(=O)[C@H](CCCCN)NC(=O)[C@H](CCCCN)NC(=O)[C@@H](Cc2ccccc2)NC1=O [BPC626, c(KKLKK(CO-isoC5H11)fKKLQ)] (cyclo(KKLKK(Pentanoyl(4-Me))[dF]KKLQ))	51 ± 7%

Entry CC(C)C[C@@H]1NC(=O)[C@H](CCCCN)NC(=O)[C@H](CCCCN)NC(=O)[C@H](CCC(N)=O)NC(=O)[C@H](CC(C)C)NC(=O)[C@H](CCCCN)NC(=O)[C@H](CCCCN)NC(=O)[C@H](Cc2ccccc2)NC(=O)[C@H](CCCCNC(=O)CCCCCCCCCCCO)NC(=O)[C@H](CCCCN)NC1=O [BPC524, c(KKLKK(CO-C11H22OH)FKKLQ)] (cyclo(FKKLQKKLKK(X1))) — recorded Hemolysis (%) 150 µM = 100 ± 8%
